Test: Plasma pharmacokinetics of BI 187004 after single oral doses (LC–MS/MS)
Conditions: male, human, plasma, po, 20 mg, BI 187004 plasma concentrations, 20 mg single oral, planned time 4 h, Max
measurement-kind: concentration at 4 h (nM)
Numbers only; they are read as nM.

# concentration at 4 h of N#Cc1ccc2c(c1)[C@H]1CCCN(C(=O)c3ccc4[nH]cnc4c3)[C@H]1C2 = 896

* * *

Test: Plasma pharmacokinetics of BI 187004 after single oral doses (LC–MS/MS)
Details: male, human, plasma, po, 5 mg, Plasma concentration Mean, 5 mg single oral; 24 h
measurement-kind: concentration at 24 h
I'd appreciate it if you wrote the number followed by its unit.

# concentration at 24 h of N#Cc1ccc2c(c1)[C@H]1CCCN(C(=O)c3ccc4[nH]cnc4c3)[C@H]1C2 = 31 nM
